Values were extracted from patent US20120165319A1.

Tested on: IL-1β, human peripheral blood mononuclear cells (PBMC)
ASSAY COMMENT: PBMC cell assay: IL-1β assay with human PBMC or enriched adherent mononuclear cells, LPS-stimulated
Format: cell-based
MEASUREMENT CONTEXT: Homo sapiens, PBMC, Table 17
METRIC NAME: pIC50
The meaning of pIC50 here: minus log10 of the concentration in molar units.

{"columns": ["MOLECULE", "ASSAYED TARGET", "TEST RESULT"],
 "data": [
  ["O=C(O)C[C@H](NC(=O)[C@@H]1CCCN2C(=O)CC[C@H](NC(=O)c3ccccc3)C(=O)N12)C(=O)CSc1nccs1 [Compound 510a]", "IL-1β, human peripheral blood mononuclear cells (PBMC)", 6.70],
  ["CC(=O)Nc1ccc(C(=O)N[C@H]2CCC(=O)N3CCC[C@@H](C(=O)N[C@H](C=O)CC(=O)O)N3C2=O)cc1Cl [Compound 214l]", "IL-1β, human peripheral blood mononuclear cells (PBMC)", 5.72],
  ["COc1ccc(C(=O)C(=O)N[C@H]2CN(C(C)=O)c3ccccc3N(CC(=O)N[C@H](C=O)CC(=O)O)C2=O)cc1", "IL-1β, human peripheral blood mononuclear cells (PBMC)", 5.59],
  ["CN(C)c1ccc(C(=O)N[C@H]2CN(C(=O)CO)c3ccccc3N(CC(=O)N[C@H](C=O)CC(=O)O)C2=O)cc1", "IL-1β, human peripheral blood mononuclear cells (PBMC)", 5.62],
  ["O=C1C[C@H](NC(=O)[C@@H]2CCCN3C(=O)CC[C@H](NC(=O)c4ccccc4)C(=O)N23)C(OCc2ccccc2)O1 (single isomer, unassigned) [Compound 2100n]", "IL-1β, human peripheral blood mononuclear cells (PBMC)", 6.11],
  ["COc1ccc(C(=O)N[C@H]2CN(C(=O)CO)c3ccccc3N(CC(=O)N[C@H](C=O)CC(=O)O)C2=O)cc1", "IL-1β, human peripheral blood mononuclear cells (PBMC)", 5.38],
  ["COc1c(C)cc(C(=O)N[C@H]2CN(C(=O)CO)c3ccccc3N(CC(=O)N[C@H](C=O)CC(=O)O)C2=O)cc1C", "IL-1β, human peripheral blood mononuclear cells (PBMC)", 5.59],
  ["O=C1C[C@H](NC(=O)[C@@H]2CCCN3C(=O)CC[C@H](NC(=O)c4cccc5ccccc45)C(=O)N23)C(OCc2ccccc2)O1 (stereo partly shown) [Compound 213v]", "IL-1β, human peripheral blood mononuclear cells (PBMC)", 5.96],
  ["O=C[C@H](CC(=O)O)NC(=O)CN1C(=O)[C@@H](NC(=O)c2cccc3ccccc23)CN(C=O)c2ccccc21", "IL-1β, human peripheral blood mononuclear cells (PBMC)", 5.64],
  ["Nc1ccc(C(=O)N[C@H]2CN(C(=O)CO)c3ccccc3N(CC(=O)N[C@H](C=O)CC(=O)O)C2=O)cc1Cl", "IL-1β, human peripheral blood mononuclear cells (PBMC)", 5.40]
]}

Okay, now this molecule:
For COC(=O)N[C@H]1CCC(=O)N2CCC[C@@H](C(=O)N[C@@H](CC(=O)O)C(=O)COc3cccnc3)N2C1=O [Compound 283c] , write its pIC50.
5.40
